# targetOfAssay: EML4-ALK-BaF3 (Homo sapiens)
# Construct: expressed in transfected cells; host or cells: Ba/F3 cells; the other entry of the earlier key: EML4 (Q9HC35, Echinoderm microtubule-associated protein-like 4)
# testProtocol: Growth inhibition of EML4-ALK transformed BaF3 cells (MTS)
# Format: cell-based
# conditionNotes: EML4-ALK-BaF3 cells, 48 hours, MTS; Table 11
Categories are assigned from the measured IC50 using these intervals: low range = under 1000 nM, mid range = from 1000 nM up to 4000 nM, high range = 4000 nM and over

COC(=O)c1cccc(Nc2nc(Nc3ccc(N4CCN(C)CC4)cc3OC)nc3cc[nH]c23)c1: mid range

Enquiry: For this compound, which bin applies? COc1cc(N2CCC(N3CCN(C)CC3)CC2)ccc1Nc1nc(NCc2ccccc2S(C)(=O)=O)c2[nH]ccc2n1
Return: high range

Enquiry: For CSc1ccccc1CNc1nc(Nc2ccc(S(N)(=O)=O)cc2)nc2cc[nH]c12 , which IC50 bin applies?
Return: high range

Enquiry: Hello team, could you let me know which band the following compound falls into: COC(=O)c1ccccc1Nc1nc(Nc2ccc(N3CCN(C)CC3)cc2)nc2cc[nH]c12
Return: mid range

----------
# targetOfAssay: EML4-ALK (L1196M)-BaF3 (Homo sapiens, UniProt Q9UM73, L1196M)
# Construct: expressed in transfected cells; host or cells: Ba/F3 cells; the other entry of the earlier key: EML4 (Q9HC35, Echinoderm microtubule-associated protein-like 4)
# testProtocol: Growth inhibition of EML4-ALK (L1196M) transformed BaF3 cells (MTS)
# Assay type: cell-based
# conditionNotes: 48 hours, Table 12, read-out: L1196M (IC50 nM)
Response field label takes condition met when IC50 is strictly below 2000 nM and condition not met in all other cases.

COC(=O)c1ccccc1Oc1nc(Nc2ccc(N3CCN(C)CC3)cc2OC)nc2ccn(C)c12: condition not met

Enquiry: Please state whether IC50 is below 2000 nM for COC(=O)c1ccccc1Oc1nc(Nc2ccc(N3CCC(O)CC3)cc2)nc2ccn(C)c12
Return: condition not met

Enquiry: Quick check: does COc1cc(N2CCN(C)CC2)ccc1Nc1nc(NCc2ccccc2S(=O)(=O)C(C)C)c2c(ccn2C)n1 have IC50 under 2000 nM?
Return: condition met

Enquiry: Lab log: compare recorded IC50 with 2000 nM; is it strictly lower for CC(C)Sc1ccccc1Nc1nc(Nc2ccc(N3CCC(O)CC3)cc2)nc2ccn(C)c12 ?
Return: condition met

----------
# System: breast cancer MCF7
# testProtocol: Growth inhibition of tumor cells MCF7
# Format: cell-based
# conditionNotes: Homo sapiens
readoutLabel: IC50 (nM)
Answers are plain numbers, in nM.

Enquiry: API: value(readout= IC50, system= breast cancer MCF7, query= COc1cc(N2CCC(N3CCN(C)CC3)CC2)ccc1Nc1nc(Nc2ccccc2S(=O)(=O)C(C)C)c2[nH]ccc2n1 )
Return: 2840

----------
# targetOfAssay: EML4-ALK-BaF3 (Homo sapiens, UniProt Q9UM73)
# Construct: expressed in transfected cells; host or cells: Ba/F3 cells; the other entry of the earlier key: EML4 (Q9HC35, Echinoderm microtubule-associated protein-like 4)
# Sequence (Q9UM73 1058-1620 limits assumed): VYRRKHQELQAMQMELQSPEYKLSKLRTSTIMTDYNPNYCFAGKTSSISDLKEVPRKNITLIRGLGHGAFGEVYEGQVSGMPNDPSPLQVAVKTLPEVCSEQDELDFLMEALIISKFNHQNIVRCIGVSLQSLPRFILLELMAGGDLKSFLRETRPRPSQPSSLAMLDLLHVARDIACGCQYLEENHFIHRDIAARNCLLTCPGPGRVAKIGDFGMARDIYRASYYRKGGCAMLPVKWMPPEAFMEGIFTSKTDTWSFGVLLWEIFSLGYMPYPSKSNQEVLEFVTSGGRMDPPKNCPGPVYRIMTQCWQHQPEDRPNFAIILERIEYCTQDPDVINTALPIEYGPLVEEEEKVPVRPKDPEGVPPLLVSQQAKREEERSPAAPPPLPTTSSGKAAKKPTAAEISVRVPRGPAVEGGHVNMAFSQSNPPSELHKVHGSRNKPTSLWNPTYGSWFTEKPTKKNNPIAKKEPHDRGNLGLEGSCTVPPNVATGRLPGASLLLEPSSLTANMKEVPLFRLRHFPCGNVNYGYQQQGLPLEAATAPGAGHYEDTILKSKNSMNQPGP
# testProtocol: Growth inhibition of EML4-ALK transformed BaF3 cells (MTS)
# Format: cell-based
# conditionNotes: EML4-ALK-BaF3 cells, 48 hours, MTS; Table 11
Record form. Attribute: IC50. Fill in for each entry.

COC(=O)c1cccc(Nc2nc(Nc3ccc(N4CCOCC4)cc3)nc3cc[nH]c23)c1: 238 nM
CCC(C)OC(=O)c1ccccc1Nc1nc(Nc2ccc(N3CCN(C)CC3)cc2OC)nc2cc[nH]c12 (centres unmarked): 1120 nM
COC(=O)c1sccc1Nc1nc(Nc2ccc(N3CCN(C)CC3)cc2OC)nc2cc[nH]c12: ~2580 nM
CNc1nc(Nc2ccc(N3CCC(O)CC3)cc2)nc2cc[nH]c12: > 10000 nM

Next:
Enquiry: Which IC50 is reported for this compound? COC(=O)c1cccc(Nc2nc(Nc3ccc(N4CCC(N5CCCC5)CC4)cc3OC)nc3cc[nH]c23)c1
Return: 4960 nM

----------
# targetOfAssay: EML4-ALK (L1196M)-BaF3 (Homo sapiens, UniProt Q9UM73, L1196M)
# Construct: expressed in transfected cells; host or cells: Ba/F3 cells; the other entry of the earlier key: EML4 (Q9HC35, Echinoderm microtubule-associated protein-like 4)
# testProtocol: Growth inhibition of EML4-ALK (L1196M) transformed BaF3 cells (MTS)
# Assay type: cell-based
# conditionNotes: 48 hours, Table 11, read-out: EML4-ALK (L1196M) (IC50 nM)
What IC50 was measured for each of the following?
Numbers only, in nM.

COC(=O)c1ccccc1Sc1nc(Nc2ccc(N3CCC(O)CC3)cc2)nc2cc[nH]c12: 4180

For each of the molecules below, note its IC50.
1. COC(=O)c1ccccc1Sc1nc(Nc2ccc(N3CCC(N4CCN(C)CC4)CC3)cc2OC)nc2cc[nH]c12
2. COC(=O)c1ccccc1Nc1nc(Nc2ccc(N3CCC(N4CCN(C)CC4)CC3)cc2OC)nc2cc[nH]c12
3. COC(=O)c1cccc(Nc2nc(Nc3ccc(N4CCC(O)CC4)cc3)nc3cc[nH]c23)c1

Return:
1. 2670
2. 1190
3. 6160

Hey, quick one: what's IC50 for each of these?
1. COC(=O)c1ccccc1Sc1nc(Nc2ccc(S(N)(=O)=O)cc2)nc2cc[nH]c12
2. COC(=O)c1ccccc1Nc1nc(Nc2cc(C)c(C3CCN(C)CC3)cc2OC)nc2cc[nH]c12
3. COc1cc(N2CCN(C)CC2)ccc1Nc1nc(Nc2ccccc2SC)c2[nH]ccc2n1
4. COc1cc(N2CCN(C)CC2)ccc1Nc1nc(NCc2ccccc2S(=O)(=O)C(C)C)c2[nH]ccc2n1
5. COC(=O)c1ccccc1Oc1nc(Nc2ccc(N3CCN(C)CC3)cc2OC)nc2cc[nH]c12
6. COC(=O)c1ccccc1Nc1nc(Nc2ccc(N3CCN(C)CC3)cc2OC)nc2cc[nH]c12
7. CNC(=O)c1ccccc1Nc1nc(Nc2ccc(N3CCC(N4CCCC4)CC3)cc2OC)nc2cc[nH]c12
8. CC(C)Sc1ccccc1Nc1nc(Nc2ccc(S(N)(=O)=O)cc2)nc2cc[nH]c12

Return:
[5990, 884, 1800, 3400, 7310, 1160, 4110, 8700]

For each listed entry, give its IC50.
1. CSc1ccccc1Nc1nc(Nc2ccc(N3CCC(O)CC3)cc2)nc2cc[nH]c12
2. CCC(C)OC(=O)c1ccccc1Nc1nc(Nc2ccc(N3CCC(O)CC3)cc2)nc2cc[nH]c12 (stereo not drawn)

Return:
1: 761; 2: 40400

----------
# targetOfAssay: EML4-ALK (L1196M)-BaF3 (Homo sapiens, UniProt Q9UM73, L1196M)
# Construct: expressed in transfected cells; host or cells: Ba/F3 cells; the other entry of the earlier key: EML4 (Q9HC35, Echinoderm microtubule-associated protein-like 4)
# testProtocol: Growth inhibition of EML4-ALK (L1196M) transformed BaF3 cells (MTS)
# Type: cell-based
# conditionNotes: 48 hours, Table 12, read-out: L1196M (IC50 nM)
readoutLabel: IC50 (nM)
Give bare numbers, in nM.

CC(C)Sc1ccccc1Nc1nc(Nc2ccc(S(N)(=O)=O)cc2)nc2ccn(C)c12: 4210
COc1cc(N2CCN(C)CC2)ccc1Nc1nc(NCc2ccccc2SC)c2c(ccn2C)n1: 1690

Hi! Can you tell me IC50 for each of these compounds?
1. CC(C)S(=O)(=O)c1ccccc1Nc1nc(Nc2ccc(N3CCC(O)CC3)cc2)nc2ccn(C)c12
2. CSc1ccccc1Nc1nc(Nc2ccc(N3CCN(C)CC3)cc2)nc2ccn(C)c12

Return:
6650
978

Enquiry: Would you kindly share the measured IC50 for Cn1ccc2nc(Nc3ccc(S(N)(=O)=O)cc3)nc(Nc3ccccc3S(C)(=O)=O)c21 ?
Return: 28200

----------
# targetOfAssay: NPM-ALK-BaF3 (Homo sapiens, UniProt Q9UM73)
# Construct: expressed in transfected cells; host or cells: Ba/F3 cells; the other entry of the earlier key: NPM1 (P06748, Nucleophosmin)
# Sequence (Q9UM73 with tags, fused parts or gaps): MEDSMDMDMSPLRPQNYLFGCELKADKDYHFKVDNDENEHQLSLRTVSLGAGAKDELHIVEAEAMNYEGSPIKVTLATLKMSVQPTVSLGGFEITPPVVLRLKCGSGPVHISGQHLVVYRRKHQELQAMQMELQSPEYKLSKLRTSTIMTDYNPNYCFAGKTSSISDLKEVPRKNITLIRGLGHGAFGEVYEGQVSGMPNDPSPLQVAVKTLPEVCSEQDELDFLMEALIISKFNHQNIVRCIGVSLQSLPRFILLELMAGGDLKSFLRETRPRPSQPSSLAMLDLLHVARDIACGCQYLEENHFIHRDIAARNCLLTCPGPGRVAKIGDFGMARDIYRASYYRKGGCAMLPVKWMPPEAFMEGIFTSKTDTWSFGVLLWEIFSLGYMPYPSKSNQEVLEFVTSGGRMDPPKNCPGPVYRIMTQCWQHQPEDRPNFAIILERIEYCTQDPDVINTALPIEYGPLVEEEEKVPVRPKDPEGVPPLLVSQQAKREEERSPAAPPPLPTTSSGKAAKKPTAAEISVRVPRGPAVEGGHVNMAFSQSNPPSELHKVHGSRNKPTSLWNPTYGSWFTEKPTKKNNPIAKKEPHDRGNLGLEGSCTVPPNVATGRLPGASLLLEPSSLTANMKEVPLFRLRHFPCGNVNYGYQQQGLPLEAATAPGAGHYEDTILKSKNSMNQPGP
# testProtocol: Growth inhibition of NPM-ALK transformed BaF3 cells (MTS)
# Format: cell-based
# conditionNotes: 48 hours, Table 12
Provide the recorded IC50 for the entries that follow.
Give bare numbers, in nM.

COc1cc(C2CCN(C)CC2)c(C)cc1Nc1nc(Nc2ccccc2S(=O)(=O)C(C)C)c2c(ccn2C)n1: 4740

Now for the compound whose IC50 we want.
Enquiry: Fill in: IC50 of COC(=O)c1ccccc1Nc1nc(Nc2ccc(N3CCC(O)CC3)cc2)nc2ccn(C)c12 is ___
Return: 3180

----------
# targetOfAssay: NPM-ALK-BaF3 (Homo sapiens, UniProt Q9UM73)
# Construct: expressed in transfected cells; host or cells: Ba/F3 cells; the other entry of the earlier key: NPM1 (P06748, Nucleophosmin)
# testProtocol: Growth inhibition of NPM-ALK transformed BaF3 cells (MTS)
# Type: cell-based
# conditionNotes: 48 hours, Table 11
Hi there, I'd appreciate the recorded IC50 for every entry that follows.
Numbers only, in nM.

COC(=O)c1cccc(Nc2nc(Nc3ccc(N4CCN(C)CC4)cc3OC)nc3cc[nH]c23)c1 [II-1]: 1640
COC(=O)c1ccccc1Nc1nc(Nc2ccc(N3CCOCC3)cc2OC)nc2cc[nH]c12 [IG-16]: 1740
CN1CCN(c2ccc(Nc3nc(Nc4ccccc4S(C)(=O)=O)c4[nH]ccc4n3)cc2)CC1 [IC-5]: 5260

Alright, here's another molecule for you.
Enquiry: Recorded IC50 for COC(=O)c1cccc(Nc2nc(Nc3ccc(N4CCOCC4)cc3)nc3cc[nH]c23)c1 [II-5] , please?
Return: 1290

// provenance: patent US10508118B2
